biological target: human PD-1 expressed on cells (CHO TREX human PD1 cell line, full-length human PD-1 sequence) (human, UniProt Q15116 21-288); test: cell-based or functional assay
Sequence (Q15116 21-288): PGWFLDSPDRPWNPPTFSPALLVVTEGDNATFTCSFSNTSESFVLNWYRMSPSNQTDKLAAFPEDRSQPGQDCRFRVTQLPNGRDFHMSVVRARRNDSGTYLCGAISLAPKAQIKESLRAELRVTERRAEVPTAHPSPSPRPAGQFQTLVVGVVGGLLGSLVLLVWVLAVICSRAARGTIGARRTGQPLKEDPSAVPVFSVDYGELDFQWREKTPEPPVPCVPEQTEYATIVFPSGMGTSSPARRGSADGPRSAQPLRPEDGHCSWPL
MEASUREMENT NAME: EC50 (M), NFAT-Luciferase reporter gene assay
Numeric answer only, unit M assumed.

Query: Reported EC50 (M), NFAT-Luciferase reporter gene assay for 1.1b-4GS-1.1a (other, Biparatopic VH-linker-VH) QVQLVESGGGLVKPGGSLRLSCAASGFTFSDYTMTWMRQAPGKGLEWVSYISTGGTIKYYTDSVKGRFTISRDNAKNSLYLQMNSLRADDTAVYYCAREAPLRLGESPHDAFDIWGQGTMVTVSSGGGGSGGGGSGGGGSGGGGSEVQLLESGGGSVQPGRSLRLSCAASGFTFDDHAMHWVRQAPGKGLEWVSGISWNSGSMGYADSVKDRFTISRDNAKSSLYLQMNSLRAEDTALYYCVREKGPGLTGSTADYYGLDVWGQGTMVTVSS : what is it?
Reply: 8.5e-09

New cases:
Query: I'd like to know its EC50 (M), NFAT-Luciferase reporter gene assay. The binder in question is 1.92b-4GS-1.99a (other) EVQLVESGGGLVKPGGSLRLSCAASGFTFSDESMTWMRQAPGKGLEWVSYISSGGGVKFYADSVKGRFTISRDNAKNSLYLQMNSLRAEDTAVYYCAREAPLRLGESPHDAFDISGQGTMVTVSSGGGGSGGGGSGGGGSGGGGSEVQLVESGGGVVRPGGSLRLSCAASGFTFDDYAMSWVRQAPGKGLEWVSGITWNGGSTGYADSVKGRFTISRDNAKNSLYLQMNSLRAEDTALYYCVRDKYSYAWSYDGFDIWGQGTMVTVSS
Reply: 1e-09

Query: // EC50 (M), NFAT-Luciferase reporter gene assay lookup, key: 1.77b-1GS-1.21a (other) EVQLVESGGGLVKPGGSLRLSCAASGFTFSDSSMTWMRQAPGKGLEWVSYISSGGGVKFYTDSVKGRFTISRDNAKNSLYLQMNSLRAEDTAVYYCAREAPLRLGESPHDAFDISGQGTMVTVSSGGGGSEVQLVESGGGLVQPGRSLRLSCAASGFTFDDYAMHWVRQAPGKDLEWVSGISWNGGSMGYAASVKGRFTISRDNAKNSLYLQMNSLRAEDTALYYCVREKGPGLTGSTADYYGLDVWGQGTMVTVSS
Reply: 2.3e-09

Query: Param item = 1.92b-4GS-1.103a (other) EVQLVESGGGLVKPGGSLRLSCAASGFTFSDESMTWMRQAPGKGLEWVSYISSGGGVKFYADSVKGRFTISRDNAKNSLYLQMNSLRAEDTAVYYCAREAPLRLGESPHDAFDISGQGTMVTVSSGGGGSGGGGSGGGGSGGGGSEVQLVESGGGVVRPGGSLRLSCAASGFTFDDYAMSWVRQAPGKGLEWVSGITWNGGSTGYADSVKDRFTISRDNAKNSLYLQMNSLRAEDTALYYCVRDKYSYAWSYDDFDIWGQGTMVTVSS ; retrieve measured EC50 (M), NFAT-Luciferase reporter gene assay.
Reply: 1.2e-09

Query: # lookup: EC50 (M), NFAT-Luciferase reporter gene assay of 1.1b-6GS-1.1a (other, Biparatopic VH-linker-VH) QVQLVESGGGLVKPGGSLRLSCAASGFTFSDYTMTWMRQAPGKGLEWVSYISTGGTIKYYTDSVKGRFTISRDNAKNSLYLQMNSLRADDTAVYYCAREAPLRLGESPHDAFDIWGQGTMVTVSSGGGGSGGGGSGGGGSGGGGSGGGGSGGGGSEVQLLESGGGSVQPGRSLRLSCAASGFTFDDHAMHWVRQAPGKGLEWVSGISWNSGSMGYADSVKDRFTISRDNAKSSLYLQMNSLRAEDTALYYCVREKGPGLTGSTADYYGLDVWGQGTMVTVSS
Reply: 1.1e-08
